Target: feline FcRn complex (FcRn-α subunit and β-microglobulin), biotin labeled (feline)
Test: SPR, pH 6
PROPERTY_LABEL: pKd
pKd (log units): -log10 of the concentration in mol/L.

Which pKd value is on record for feline IgG1a Q311F (antibody, part only; not given: Variable domains, not shown: another chain or arm of the molecule) constant: ASTTAPSVFPLAPSCGTTSGATVALACLVLGYFPEPVTVSWNSGALTSGVHTFPAVLQASGLYSLSSMVTVPSSRWLSDTFTCNVAHPPSNTKVDKTVRKTDHPPGPKPCDCPKCPPPEMLGGPSIFIFPPKPKDTLSISRTPEVTCLVVDLGPDDSDVQITWFVDNTQVYTAKTSPREEQFNSTYRVVSVLPILHFDWLKGKEFKCKVNSKSLPSPIERTISKAKGQPHEPQVYVLPPAQEELSRNKVSVTCLIKSFHPPDIAVEWEITGQPEPENNYRTTPPQLDSDGTYFVYSKLSVDRSHWQRGNTYTCSVSHEALHSHHTQKSLTQSPGK ?
8.05
